Each record here notes measured solubility.
- protocol_description: Comparative test of solubility in water (Britton-Robinson buffer)
- Format: physicochemical
- conditions_used: aqueous buffer; Britton-Robinson buffer (ionic strength: 0.3), 25° C., pH 7; read-out: Solubility (mg/mL) pH 7
measured_parameter: solubility (mg/mL)

{"compound": "Nc1ncccc1-c1cc(Cc2ccc(COc3ccccn3)cc2)no1 [Parent compound]", "measured_parameter": "solubility", "units_of_measure": "mg/mL", "quantitative_readout": 0.001}
{"compound": "N[C@@H](CCC(=O)Nc1ncccc1-c1cc(Cc2ccc(COc3ccccn3)cc2)no1)C(=O)O [Example 1]", "measured_parameter": "solubility", "units_of_measure": "mg/mL", "quantitative_readout": 0.3}
{"compound": "CN(C)CCOC(=O)[C@@H](N)CCC(=O)Nc1ncccc1-c1cc(Cc2ccc(COc3ccccn3)cc2)no1 [Example 3]", "measured_parameter": "solubility", "units_of_measure": "mg/mL", "quantitative_readout": 1.1}
{"compound": "COC(=O)[C@@H](N)CCC(=O)Nc1ncccc1-c1cc(Cc2ccc(COc3ccccn3)cc2)no1 [Example 2]", "measured_parameter": "solubility", "units_of_measure": "mg/mL", "quantitative_readout": 0.2}

* * *

- protocol_description: Comparative test of solubility in water (Britton-Robinson buffer)
- Assay type: physicochemical
- conditions_used: aqueous buffer; Britton-Robinson buffer (ionic strength: 0.3), 25° C., pH 3; read-out: Solubility (mg/mL) pH 3
Each record here notes measured solubility.

{"smiles_text": "N[C@@H](CCC(=O)Nc1ncccc1-c1cc(Cc2ccc(COc3ccccn3)cc2)no1)C(=O)O", "solubility (mg/mL)": 1.1}
{"smiles_text": "Nc1ncccc1-c1cc(Cc2ccc(COc3ccccn3)cc2)no1", "solubility (mg/mL)": 0.29}
{"smiles_text": "CN(C)CCOC(=O)[C@@H](N)CCC(=O)Nc1ncccc1-c1cc(Cc2ccc(COc3ccccn3)cc2)no1", "solubility (mg/mL)": 12}
{"smiles_text": "COC(=O)[C@@H](N)CCC(=O)Nc1ncccc1-c1cc(Cc2ccc(COc3ccccn3)cc2)no1", "solubility (mg/mL)": 45}

Values were extracted from patent US8188119B2.
